tested on: PC-3 prostate; assay: NCI-60 one-dose screen, 48 h (100 = growth as untreated, 0 = no growth, -100 = all killed); details: 10 µM unless noted
Compounds without any hit were thinned out: in the full panel of roughly 83,000, 20% have a hit.
MEASURED QUANTITY: growth (%)

compound=O=C(c1c[nH]c2ccccc12)c1n[nH]c(=S)n1-c1ccc([N+](=O)[O-])cc1 result_number=83.9
compound=O=C1CCCCN1c1ccc(C2=NCCCN2)cc1 result_number=79.9
compound=Oc1nc(NCc2ccccc2)sc1/C=C1\C=Nc2ncccc21 result_number=71.3
compound=O=C1c2cccnc2C(=O)c2c1c(C(=O)OCCc1ccccn1)c1ccccn21 result_number=-3.59
compound="O=C(c1ccc(Br)cc1)C(Br)C(c1ccc(Cl)cc1)C(c1ccccc1)[N+](=O)[O-] (stereo not given)" result_number=76.5

----------
system: NCI/ADR-RES ovarian; experiment: NCI-60 one-dose screen, 48 h; settings: 10 µM unless noted
This is part of a sample that, as a whole, favours compounds with a hit. Of some 83,000 tested, about 20% had one in any assay. Active and inactive are the calls of the source. Rule for the calls: active = growth percent below 10; inactive = the rest.
Possible outcomes: class 1 for active, class 0 for inactive

compound=COc1cc(OC)c2c(=O)c3c(CC=C(C)C)cc(OC)c(O)c3oc2c1 classification="class 0"
compound=CCN(CC)CCOc1ccc(Nc2ncc3cc(-c4c(Cl)cccc4Cl)c(=O)n(CCOC)c3n2)cc1 classification="class 1"
compound=O=C(Oc1ccc2c(c1)sc1nc(-c3ccccc3)[nH]c(=O)c12)C(F)(F)F classification="class 1"
compound=COc1ccc(/C=C(/C(=O)N2CCNCC2)c2cc(OC)c(OC)c(OC)c2)cc1O classification="class 0"
compound=CC1(C)CC[C@]2(CO)CC[C@]3(C)[C@](O)([C@H](O)C[C@@H]4[C@@]5(C)CCCNC(C)(C)[C@@H]5CC[C@]43C)[C@@H]2C1 classification="class 0"
compound=CCCCCCCCn1ccc2cc(NC(=O)CN3CCN(c4cc(C)nc(Cl)n4)CC3)ccc21 classification="class 0"
compound=O=C(/C=C/c1ccccc1)c1cccc2ccccc12 classification="class 0"
compound=CN1C(=O)/C(=C/c2ccc(C(=O)Nc3ncc(Cc4cccc(C(F)(F)F)c4)s3)cc2)SC1=S classification="class 0"
compound=O=C(c1cccc(N2CCOCC2)n1)c1c[nH]c2ccccc12 classification="class 0"
compound="CCN(CC)CCCC(Cc1ccccc1)Nc1c2ccc(Cl)cc2nc2ccc(OC)cc12 (configuration not stated)" classification="class 0"
compound=CC(C)(Sc1cc(C(C)(C)C)c(O)c(C(C)(C)C)c1)Sc1cc(C(C)(C)C)c(OC(=O)CCC(=O)O)c(C(C)(C)C)c1 classification="class 0"
compound=Cc1cccc(NC(=O)Cn2cc(CN3CCN(c4ccnc5cc(Cl)ccc45)CC3)nn2)c1 classification="class 0"
compound="CCCCC#Cc1c(I)n(C2OC(CO[Si](C)(C)C(C)(C)C)C3OC(C)(C)OC32)c(=O)n(C(=O)c2ccccc2)c1=O (configuration not stated)" classification="class 0"
compound=c1ccc2cc(Cn3cc(CSc4nc5ccccc5s4)nn3)ccc2c1 classification="class 0"
compound=CCCCCc1ccc(S(=O)(=O)Nc2cc(-c3csc(NC(C)=O)n3)ccc2N2CCN(C)CC2)cc1 classification="class 0"
compound="COc1cc2c(c(OC)c1OC)C(=O)CC(c1cccc(C(=O)Nc3ccccc3Br)c1)O2 (configuration not stated)" classification="class 0"
compound=CN(C)c1ccc(C(=S)c2ccc(N(C)C)cc2)cc1 classification="class 0"
compound=COc1ccc(C=Nc2c(C(=O)Nc3cccc(Cl)c3C)sc3nc(C)c(C(=O)/C=C/c4ccc(OC)cc4)cc23)cc1 classification="class 0"
compound=C=C1SC(=Nc2ccccc2Cl)N(C(=O)c2sc3ccccc3c2Cl)C1(C)C classification="class 0"
compound="CC1(C)CC(=O)C2=C(C1)C(c1ccc(Cl)cc1)n1ncc(C#N)c1N2 (configuration not stated)" classification="class 0"
compound=c1ccc(-c2nc3ccccc3[nH]2)c(OCCCCCOc2ccccc2-c2nc3ccccc3[nH]2)c1 classification="class 0"
compound=Cc1nc(N/N=C/c2cn(-c3ccccc3)nc2-c2cc3ccccc3oc2=O)sc1N=Nc1ccccc1 classification="class 0"
compound=COc1ccc2c(O)c(/C=C3\N=Nc4ncccc43)oc2c1C[C@@H]1CCNC[C@H]1F classification="class 1"
compound=O=C(/C=C/c1ccccc1Cl)c1cccc(OCCCCOc2cccc(C(=O)/C=C/c3ccccc3Cl)c2)c1 classification="class 0"
compound="Cc1oc(-c2ccc(Cl)cc2)nc1C1=NN(C(=O)c2ccncc2)C(c2ccccc2)C1 (configuration not stated)" classification="class 0"
compound="CCN1C(=O)N(CC)C2C1NN=c1s/c(=C\\c3ccc(OC)cc3)c(=O)n12 (configuration not stated)" classification="class 1"
compound=COCC(=O)Oc1cc(-c2ccc(C)cc2C)c(OC(=O)COC)c(-c2ccc(C)cc2C)c1 classification="class 0"
compound="C=CC(CC(c1ccccc1)(c1ccccc1)c1ccccc1)N(CC)CC (configuration not stated)" classification="class 0"
compound=O=c1oc2c(cc1-c1ccccc1)c(=O)[nH]c1ccccc12 classification="class 0"
compound=Cc1ccc(OCCOCCOCCOc2ccc(C)n(O)c2=S)c(=S)n1O classification="class 0"
compound=COC12C=C/C(=C(/C(=O)OCc3cncnc3)C(=O)CCCCCCCCC3(OC)C=C/C(=C(/C(=O)OCc4cncnc4)C(=O)CCCCCCCC1)O3)O2 classification="class 1"
compound=CCOC(=O)c1c(C)nc2c(c1N)C(=O)C(=O)N2Cc1ccc(OC)cc1 classification="class 1"
compound=O=C(N/N=C/c1ccc(Cl)cc1)c1ccc(NC(=O)c2ccccn2)cc1 classification="class 0"
compound="COc1ccccc1S(=O)(=O)Nc1ccc2c3c(cc(CCC(=O)NCCCCNc4cccc5c4C(=O)N(C4CCC(=O)NC4=O)C5=O)cc13)C(=O)N2C (configuration not stated)" classification="class 0"
compound=C=C1C(=O)O[C@H]2[C@H]1CC/C(COC(=O)C(=O)c1c[nH]c3ccc(Cl)cc13)=C\CC[C@@]1(C)O[C@@H]21 classification="class 1"
compound="CS(=O)/C(C#N)=C\\C=C\\c1cccc(Cl)c1 (configuration not stated)" classification="class 1"
compound=Nc1ncccc1O classification="class 0"

The reported measurements were obtained from PubChem BioAssay (NCI).
